Give measured zone of inhibition at 30 µg/mL for each item. Keep answers brief.
Test system: Geotrichum candidum
Run description: Antifungal activity against Geotrichum candidum 052008 assessed as zone of inhibition at 30 ug/ml
Assay type: functional
Reported conditions: read-out: IZ
Field: numeric (mm). Do not append units.

Ask | Consider the compound shown here: "Cc1ccc(/N=N/c2c(N)nn3c(-c4ccco4)cc(-c4ccco4)nc23)cc1" What is its recorded zone of inhibition at 30 µg/mL?
Reply | 19.5

Ask | Consider the compound shown here: CCC(C)n1ncn(-c2ccc(N3CCN(c4ccc(OCC5COC(Cn6cncn6)(c6ccc(Cl)cc6Cl)O5)cc4)CC3)cc2)c1=O (stereo not given) What is its recorded zone of inhibition at 30 µg/mL?
Reply | 24.2

Ask | Consider the compound shown here: "Nc1nn2c(-c3cccs3)cc(-c3cccs3)nc2c1/N=N/c1ccccc1" What is its recorded zone of inhibition at 30 µg/mL?
Reply | 11.3

Ask | Consider the compound shown here: "Clc1ccccc1C(c1ccccc1)(c1ccccc1)n1ccnc1" What is its recorded zone of inhibition at 30 µg/mL?
Reply | 23.2

Ask | Consider the compound shown here: "Nc1nn2c(-c3ccco3)cc(-c3ccco3)nc2c1/N=N/c1ccccc1" What is its recorded zone of inhibition at 30 µg/mL?
Reply | 15.3
